Origin of measurements: patent US8889672B2

Target: PKCε (Homo sapiens (Human), UniProt Q02156)
Sequence (Q02156 whole entry): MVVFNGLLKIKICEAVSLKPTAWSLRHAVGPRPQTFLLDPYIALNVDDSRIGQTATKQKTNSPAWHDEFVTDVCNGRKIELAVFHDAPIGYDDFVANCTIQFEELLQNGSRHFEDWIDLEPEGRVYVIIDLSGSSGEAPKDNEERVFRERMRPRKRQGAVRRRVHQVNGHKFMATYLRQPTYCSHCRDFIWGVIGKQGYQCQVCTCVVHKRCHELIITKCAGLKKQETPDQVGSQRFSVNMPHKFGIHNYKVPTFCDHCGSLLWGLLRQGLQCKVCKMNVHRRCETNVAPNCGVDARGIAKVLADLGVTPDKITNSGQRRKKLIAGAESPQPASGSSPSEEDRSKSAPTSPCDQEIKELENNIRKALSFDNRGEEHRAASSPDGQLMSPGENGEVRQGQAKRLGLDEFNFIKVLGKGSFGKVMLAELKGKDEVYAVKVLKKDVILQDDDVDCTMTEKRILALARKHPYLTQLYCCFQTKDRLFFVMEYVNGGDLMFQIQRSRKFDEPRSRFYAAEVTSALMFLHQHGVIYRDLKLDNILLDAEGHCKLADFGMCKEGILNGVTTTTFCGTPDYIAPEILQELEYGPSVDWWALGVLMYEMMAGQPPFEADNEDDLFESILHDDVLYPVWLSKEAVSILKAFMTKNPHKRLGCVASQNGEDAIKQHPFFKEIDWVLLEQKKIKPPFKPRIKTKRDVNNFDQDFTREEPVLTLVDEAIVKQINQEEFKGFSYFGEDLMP
PROPERTY: IC50

Which IC50 is reported with PKCε (Homo sapiens (Human), UniProt Q02156) for this entry: COc1ccc(-c2csc(N)c2C(=O)OC(C)C)cc1OC ?
> 100 µM

###

Molecular target: PKCδ (Homo sapiens (Human))
Sequence (Q05655 whole entry): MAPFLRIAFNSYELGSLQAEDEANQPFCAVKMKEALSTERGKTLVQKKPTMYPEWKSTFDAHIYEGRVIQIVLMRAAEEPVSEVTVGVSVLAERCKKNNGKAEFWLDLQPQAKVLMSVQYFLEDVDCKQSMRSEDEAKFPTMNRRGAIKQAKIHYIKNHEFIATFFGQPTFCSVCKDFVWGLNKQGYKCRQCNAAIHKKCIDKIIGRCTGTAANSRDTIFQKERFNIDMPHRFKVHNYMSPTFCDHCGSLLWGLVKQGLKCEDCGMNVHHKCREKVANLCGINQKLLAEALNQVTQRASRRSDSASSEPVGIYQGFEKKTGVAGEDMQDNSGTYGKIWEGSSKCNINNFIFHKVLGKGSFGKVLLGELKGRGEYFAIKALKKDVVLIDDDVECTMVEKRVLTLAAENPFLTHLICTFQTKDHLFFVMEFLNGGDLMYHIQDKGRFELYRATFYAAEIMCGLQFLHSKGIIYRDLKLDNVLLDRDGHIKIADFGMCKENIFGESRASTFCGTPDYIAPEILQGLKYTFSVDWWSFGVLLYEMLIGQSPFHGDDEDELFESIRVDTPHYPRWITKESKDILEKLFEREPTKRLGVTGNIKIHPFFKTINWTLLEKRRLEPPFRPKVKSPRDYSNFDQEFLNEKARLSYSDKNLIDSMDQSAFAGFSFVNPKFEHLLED
PROPERTY: pIC50
pIC50 is defined as minus the log10 of a concentration measured in mol/L.

Look up pIC50 for this compound: COc1ccc(-c2csc(N)c2C(=O)OC(C)C)cc1OC
3.83

###

Molecular target: aPKCζ (Homo sapiens (Human), UniProt Q05513)
Sequence (Q05513 whole entry): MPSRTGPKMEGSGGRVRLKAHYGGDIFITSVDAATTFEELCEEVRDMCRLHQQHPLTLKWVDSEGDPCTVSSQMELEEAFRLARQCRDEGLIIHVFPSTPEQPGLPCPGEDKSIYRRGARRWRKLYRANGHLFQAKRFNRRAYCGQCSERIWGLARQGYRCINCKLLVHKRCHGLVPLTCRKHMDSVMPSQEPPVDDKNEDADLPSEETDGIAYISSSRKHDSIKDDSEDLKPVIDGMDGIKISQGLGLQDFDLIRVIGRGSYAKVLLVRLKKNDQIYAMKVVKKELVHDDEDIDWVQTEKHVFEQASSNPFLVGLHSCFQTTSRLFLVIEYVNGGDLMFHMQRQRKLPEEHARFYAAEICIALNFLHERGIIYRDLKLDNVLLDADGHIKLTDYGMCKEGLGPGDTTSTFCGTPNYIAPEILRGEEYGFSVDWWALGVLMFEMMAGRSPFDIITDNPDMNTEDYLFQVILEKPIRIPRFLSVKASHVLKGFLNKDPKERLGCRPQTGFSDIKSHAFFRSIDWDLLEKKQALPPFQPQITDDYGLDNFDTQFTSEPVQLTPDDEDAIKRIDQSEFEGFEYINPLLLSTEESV
Test: Kinase-Glo end-point assay, IC50 against aPKCζ
Conditions: 125 ng/ml aPKCζ, 25 μM CREBtide, 0.1 μM ATP
PROPERTY: pIC50
As a rule, pIC50 stands for the negative log10 of the concentration, concentration in M.

Can you look up pIC50 on aPKCζ (Homo sapiens (Human), UniProt Q05513) for CCOC(=O)c1c(NC(C)=O)sc(C(C)=O)c1-c1ccc(Cl)cc1 [APOGEE B] ?
4.15

###

Target: UniProtKB Q05513
Assay: ADP Quest assay, IC50 against aPKCζ
Conditions: 500 ng/ml aPKCζ, 10 μM CREBtide, 10 μM ATP
In this section, each of the molecules is paired with its reported pIC50.
In plain terms, pIC50 is the concentration in mol/L turned into minus its base-10 logarithm.

                              record_smiles  observed_result
0       CCNC(=O)c1c(-c2ccc(Cl)c(Cl)c2)csc1N             5.30
1  COc1cccc(COC(=O)c2c(-c3ccc(OC)c(OC)c3)csc2N)c1             5.30
2        CCOC(=O)c1c(-c2ccc3c(c2)OCO3)csc1N             5.70

Need pIC50 of CC(C)NC(=O)c1c(-c2ccc(Cl)c(Cl)c2)csc1N , thanks.
5.30

Ok, now COc1ccc(-c2csc(N)c2C#N)cc1OC
5.15

Can you handle CCNC(=O)c1c(-c2ccc(OC)c(OC)c2)csc1N next?
5.40

# iterate: CCOC(=O)c1c(-c2ccc(N)cc2)csc1N
5.70

Same lookup for COc1ccc(-c2csc(N)c2C(=O)N2CCOCC2)cc1OC , please.
5.40

Another molecule to check: COc1ccc(-c2csc(N)c2C(=O)OCc2ccccc2F)cc1OC
5.15

Entry CCOC(=O)c1c(-c2ccc(NC(C)=O)cc2)csc1N please
5.22

Check CCOC(=O)c1c(-c2ccc(OC)cc2F)csc1N too.
5.40

Same question, Nc1scc(-c2ccc(Cl)c(Cl)c2)c1C(=O)N1CCOCC1 this time
5.52

Would you mind doing COc1ccc(-c2csc(N)c2C(=O)OCc2ccccc2)cc1OC as well?
5.22

Proceed to COc1cccc(COC(=O)c2c(-c3ccc(C(N)=O)cc3)csc2N)c1
5.22
